molecular target: human IL-6 (human, UniProt P05231 30-212); test: SPR Biacore, supernatant, Protein A capture, 37 C
Sequence (P05231 30-212 limits assumed): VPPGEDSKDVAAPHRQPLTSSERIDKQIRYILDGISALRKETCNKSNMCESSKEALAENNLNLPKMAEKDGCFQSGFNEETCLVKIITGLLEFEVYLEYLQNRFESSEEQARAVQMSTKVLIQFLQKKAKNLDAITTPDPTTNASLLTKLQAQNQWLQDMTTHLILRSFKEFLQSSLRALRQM
pKd: −log10 of the molar value.
value-kind: pKd

binder="Anti-IL-6 antibody, heavy chain S35H, G66D, Q99V / light chain M32L, M50D, N52S, M88Q (antibody, IgG1, V domains shown, IgG1; variable domains only; VL is variant III) VH: EVQLVESGGGLVQPGGSLRLSCAASGFTFSPFAMHWVRQAPGKGLEWVAKISPGGSWTYYSDTVTDRFTFSLDTSKSTAYLQMNSLRAEDTAVYYCARVLWGYYALDIWGQGTLVTVSS VL: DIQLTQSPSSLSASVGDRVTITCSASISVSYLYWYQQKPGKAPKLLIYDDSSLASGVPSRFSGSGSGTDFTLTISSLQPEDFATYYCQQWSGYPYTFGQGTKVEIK" value_kind=pKd numeric_result=8.75
binder="Anti-IL-6 antibody, heavy chain G66D / light chain WT (antibody, IgG1, V domains shown, IgG1; variable domains only) VH: EVQLVESGGGLVQPGGSLRLSCAASGFTFSPFAMSWVRQAPGKGLEWVAKISPGGSWTYYSDTVTDRFTFSLDTSKSTAYLQMNSLRAEDTAVYYCARQLWGYYALDIWGQGTLVTVSS VL: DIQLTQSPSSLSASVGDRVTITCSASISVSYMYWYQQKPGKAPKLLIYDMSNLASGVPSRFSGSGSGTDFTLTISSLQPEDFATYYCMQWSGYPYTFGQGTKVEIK" value_kind=pKd numeric_result=9.53
binder="Anti-IL-6 antibody, heavy chain S35H, G66D, L100R / light chain WT (antibody, IgG1, V domains shown, IgG1; variable domains only) VH: EVQLVESGGGLVQPGGSLRLSCAASGFTFSPFAMHWVRQAPGKGLEWVAKISPGGSWTYYSDTVTDRFTFSLDTSKSTAYLQMNSLRAEDTAVYYCARQRWGYYALDIWGQGTLVTVSS VL: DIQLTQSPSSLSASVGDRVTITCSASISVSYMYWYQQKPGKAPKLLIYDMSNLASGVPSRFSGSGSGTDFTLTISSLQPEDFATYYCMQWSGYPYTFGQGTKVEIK" value_kind=pKd numeric_result=9.00
binder="Anti-IL-6 antibody, heavy chain S35H, G66D, L100I / light chain M32L, M50D, N52S, M88Q (antibody, IgG1, V domains shown, IgG1; variable domains only; VL is variant III) VH: EVQLVESGGGLVQPGGSLRLSCAASGFTFSPFAMHWVRQAPGKGLEWVAKISPGGSWTYYSDTVTDRFTFSLDTSKSTAYLQMNSLRAEDTAVYYCARQIWGYYALDIWGQGTLVTVSS VL: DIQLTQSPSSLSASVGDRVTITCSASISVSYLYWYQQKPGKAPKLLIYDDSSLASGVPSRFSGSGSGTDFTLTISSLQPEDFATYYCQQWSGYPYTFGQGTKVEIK" value_kind=pKd numeric_result=9.43
binder="Anti-IL-6 antibody, heavy chain S35H, G66D, L100Q / light chain M32L, M50D, N52S, M88Q (antibody, IgG1, V domains shown, IgG1; variable domains only; VL is variant III) VH: EVQLVESGGGLVQPGGSLRLSCAASGFTFSPFAMHWVRQAPGKGLEWVAKISPGGSWTYYSDTVTDRFTFSLDTSKSTAYLQMNSLRAEDTAVYYCARQQWGYYALDIWGQGTLVTVSS VL: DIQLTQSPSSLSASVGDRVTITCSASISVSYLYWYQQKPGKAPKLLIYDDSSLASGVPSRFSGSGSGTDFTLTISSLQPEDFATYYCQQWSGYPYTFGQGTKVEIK" value_kind=pKd numeric_result=9.83
binder="Anti-IL-6 antibody, heavy chain S35H, G66D, L100Y / light chain WT (antibody, IgG1, V domains shown, IgG1; variable domains only) VH: EVQLVESGGGLVQPGGSLRLSCAASGFTFSPFAMHWVRQAPGKGLEWVAKISPGGSWTYYSDTVTDRFTFSLDTSKSTAYLQMNSLRAEDTAVYYCARQYWGYYALDIWGQGTLVTVSS VL: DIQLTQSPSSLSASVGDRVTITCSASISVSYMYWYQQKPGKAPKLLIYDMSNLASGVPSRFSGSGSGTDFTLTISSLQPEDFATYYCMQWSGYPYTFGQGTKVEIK" value_kind=pKd numeric_result=9.20
binder="Anti-IL-6 antibody, heavy chain S35H, G66D, L100V / light chain WT (antibody, IgG1, V domains shown, IgG1; variable domains only) VH: EVQLVESGGGLVQPGGSLRLSCAASGFTFSPFAMHWVRQAPGKGLEWVAKISPGGSWTYYSDTVTDRFTFSLDTSKSTAYLQMNSLRAEDTAVYYCARQVWGYYALDIWGQGTLVTVSS VL: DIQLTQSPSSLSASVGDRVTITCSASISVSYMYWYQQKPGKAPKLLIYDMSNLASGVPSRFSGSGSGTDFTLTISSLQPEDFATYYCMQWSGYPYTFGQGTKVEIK" value_kind=pKd numeric_result=9.61
binder="Anti-IL-6 antibody, heavy chain S35H, G66D, L100T / light chain WT (antibody, IgG1, V domains shown, IgG1; variable domains only) VH: EVQLVESGGGLVQPGGSLRLSCAASGFTFSPFAMHWVRQAPGKGLEWVAKISPGGSWTYYSDTVTDRFTFSLDTSKSTAYLQMNSLRAEDTAVYYCARQTWGYYALDIWGQGTLVTVSS VL: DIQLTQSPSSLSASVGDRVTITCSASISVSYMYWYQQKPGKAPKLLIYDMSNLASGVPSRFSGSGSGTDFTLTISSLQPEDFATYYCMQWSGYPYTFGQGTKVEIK" value_kind=pKd numeric_result=9.66
binder="Anti-IL-6 antibody, heavy chain S35H, G66D, Q99A / light chain M32L, M50D, N52S, M88Q (antibody, IgG1, V domains shown, IgG1; variable domains only; VL is variant III) VH: EVQLVESGGGLVQPGGSLRLSCAASGFTFSPFAMHWVRQAPGKGLEWVAKISPGGSWTYYSDTVTDRFTFSLDTSKSTAYLQMNSLRAEDTAVYYCARALWGYYALDIWGQGTLVTVSS VL: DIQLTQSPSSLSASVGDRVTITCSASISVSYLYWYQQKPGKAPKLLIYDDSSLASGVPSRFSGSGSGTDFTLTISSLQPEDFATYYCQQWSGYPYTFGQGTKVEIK" value_kind=pKd numeric_result=8.51
binder="Anti-IL-6 antibody, heavy chain S35H, G66D, L100S / light chain M32L, M50D, N52S, M88Q (antibody, IgG1, V domains shown, IgG1; variable domains only; VL is variant III) VH: EVQLVESGGGLVQPGGSLRLSCAASGFTFSPFAMHWVRQAPGKGLEWVAKISPGGSWTYYSDTVTDRFTFSLDTSKSTAYLQMNSLRAEDTAVYYCARQSWGYYALDIWGQGTLVTVSS VL: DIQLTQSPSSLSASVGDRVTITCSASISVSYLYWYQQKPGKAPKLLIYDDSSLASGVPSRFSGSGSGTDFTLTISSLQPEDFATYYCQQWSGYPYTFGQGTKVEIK" value_kind=pKd numeric_result=9.94
